- Tested on: Staphylococcus aureus
- measurement.notes: microbe, parasite or virus in culture
- Assay type: functional
- experimental.conditions: ATCC 33591, 24 h
metric: MIC

Examples with answers:
Query string: Fill in MIC for CCC[C@@H]1C[C@@H](C(=O)N[C@@H]([C@H]2O[C@H](SC)[C@H](O)[C@@H](O)[C@H]2O)[C@H](C)Cl)N(C)C1.Cl [CLINDAMYCIN HYDROCHLORIDE] tested with Staphylococcus aureus.
Result string: > 64 µg/mL

Query string: State measured MIC of the molecule Cc1onc(-c2ccccc2Cl)c1C(=O)N[C@@H]1C(=O)N2[C@@H]1SC(C)(C)[C@@H]2C(=O)[O-].[Na+] [OXACILLIN SODIUM SALT] with Staphylococcus aureus.
Result string: > 64 µg/mL

More entries:
Query string: System Staphylococcus aureus. Read-out MIC. Item CC[C@H]1OC(=O)[C@H](C)[C@@H](O[C@H]2C[C@@](C)(OC)[C@@H](O)[C@H](C)O2)[C@H](C)[C@@H](O[C@@H]2O[C@H](C)C[C@H](N(C)C)[C@H]2O)[C@](C)(O)C[C@@H](C)C(=O)[C@H](C)[C@@H](O)[C@]1(C)O [ERYTHROMYCIN] . Report value.
Result string: > 64 µg/mL
